Origin of measurements: PubChem BioAssay AID1845200

So I've got a bunch of compounds here, and I need their pIC50 values.
- Tested on: ASPS-1 complex tumor spheroids, viability
- assay_summary: Anticancer human tumor ASPS-1 cell line growth inhibition;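 note: spheroids exposed to agents for 7 days after 3 days of growth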
- details: curve of first compound; second compound 0.003 µM
pIC50: −log10 of the molar value.

IN: Tell me its pIC50 given COc1cc(C)[nH]c(=O)c1CN1CCc2c(Cl)cc(C(OC)C3COC3)c(Cl)c2C1=O (stereo not drawn) + CC[C@@]1(O)C(=O)OCc2c1cc1n(c2=O)Cc2cc3c(CN(C)C)c(O)ccc3nc2-1 as the entry.
OUT: < 5.00

IN: Tell me its pIC50 given CC(C)n1c(=O)n(C)c2cnc3cc(F)c(-c4ccc(OCCCN5CCCCC5)nc4)cc3c21 + COc1cc2c(cc1O)CCNC21CSC2c3c(OC(C)=O)c(C)c4c(c3C(COC1=O)N1C(O)C3Cc5cc(C)c(OC)c(O)c5C(C21)N3C)OCO4 as the entry.
OUT: > 7.50

IN: Tell me its pIC50 given [2H]c1nc(C)nc([2H])c1-c1cc(NC[C@@H](C)c2cccc3c(C(=O)NC)ccnc23)ncn1 + COc1cc2c(cc1O)CCNC21CSC2c3c(OC(C)=O)c(C)c4c(c3C(COC1=O)N1C(O)C3Cc5cc(C)c(OC)c(O)c5C(C21)N3C)OCO4 as the entry.
OUT: > 7.50

====

- System: ASPS-1 complex tumor spheroids, viability
- assay_summary: Anticancer human tumor ASPS-1 cell line growth inhibition;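 note: spheroids exposed to agents for 7 days after 3 days of growth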;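 for viability, T/C: 100% = DMSO vehicle treated spheroids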
- details: second compound 30 pM; first compound 1 µM; stronger effect = lower value
So I've got a bunch of compounds here, and I need their viability, T/C values.

IN: Tell me its viability, T/C given CC1COCCN1c1cc(-c2ccnn2C)c2ccnc(-c3ccn[nH]3)c2n1 (configuration not stated) + COc1cc2c(cc1O)CCNC21CSC2c3c(OC(C)=O)c(C)c4c(c3C(COC1=O)N1C(O)C3Cc5cc(C)c(OC)c(O)c5C(C21)N3C)OCO4 as the entry.
OUT: 42.9%

IN: Tell me its viability, T/C given COc1cc(C)[nH]c(=O)c1CN1CCc2c(Cl)cc(C(OC)C3COC3)c(Cl)c2C1=O (configuration not stated) + COc1cc2c(cc1O)CCNC21CSC2c3c(OC(C)=O)c(C)c4c(c3C(COC1=O)N1C(O)C3Cc5cc(C)c(OC)c(O)c5C(C21)N3C)OCO4 as the entry.
OUT: 108%

====

- Test system: ASPS-1 complex tumor spheroids, viability
- assay_summary: Anticancer human tumor ASPS-1 cell line growth inhibition;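 note: spheroids exposed to agents for 7 days after 3 days of growth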;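 for viability, T/C: 100% = DMSO vehicle treated spheroids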
- details: second compound 3.16 µM; first compound 0.0949 µM; stronger effect = lower value
So I've got a bunch of compounds here, and I need their viability, T/C values.

IN: Tell me its viability, T/C given Cn1ncnc1[C@H]1c2n[nH]c(=O)c3cc(F)cc(c23)N[C@@H]1c1ccc(F)cc1 + Cn1nnc2c(C(N)=O)ncn2c1=O as the entry.
OUT: 96.2%

IN: Tell me its viability, T/C given O=C(c1cc(Cc2n[nH]c(=O)c3ccccc23)ccc1F)N1CCN(C(=O)C2CC2)CC1 + Cn1nnc2c(C(N)=O)ncn2c1=O as the entry.
OUT: 97.6%

IN: Tell me its viability, T/C given CNCc1ccc(-c2cc(-c3nc(-c4ccc(S(=O)(=O)C(C)C)cc4)cnc3N)on2)cc1 + Cn1nnc2c(C(N)=O)ncn2c1=O as the entry.
OUT: 92.6%

IN: Tell me its viability, T/C given Cc1sc2c(c1C)C(c1ccc(Cl)cc1)=NC(CC(=O)Nc1ccc(O)cc1)c1nnc(C)n1-2 (centres undefined) + Cn1nnc2c(C(N)=O)ncn2c1=O as the entry.
OUT: 111%
